// data source = ChEMBL document CHEMBL4765399

The compounds listed here are annotated with their IC50.
tested on: L02; experiment: Cytotoxicity against human L02 cells assessed as reduction in cell viability incubated for 48 hrs by MTT assay; format: cell-based; conditions: L02, 48 h

INPUT: Respond only with IC50 recorded for COc1cccc2c(Nc3ccc4[nH]c(C(=O)N/N=C/c5ccc([N+](=O)[O-])cc5O)cc4c3)cc(C)nc12
OUTPUT: > 20 µM

INPUT: Look up and report measured IC50 for this entry: COc1cccc2c(Nc3ccc4[nH]c(C(=O)N/N=C/c5cc(O)ccc5O)cc4c3)cc(C)nc12
OUTPUT: > 20 µM

INPUT: Provide IC50 value for the following compound: COc1ccc(/C=N/NC(=O)c2cc3cc(Nc4cc(C)nc5c(OC)cccc45)ccc3[nH]2)cc1OC
OUTPUT: > 20 µM

INPUT: Using the record for COc1ccc(/C=N/NC(=O)c2cc3cc(Nc4cc(C)nc5c(OC)cccc45)ccc3[nH]2)cc1 , state its measured IC50.
OUTPUT: 0.76 µM

INPUT: Output measured IC50 for this item: COc1cccc2c(Nc3ccc4[nH]c(C(=O)N/N=C/c5cc6ccccc6nc5Cl)cc4c3)cc(C)nc12
OUTPUT: > 20 µM

New cases:
INPUT: Provide measured IC50 value, entry: COc1cccc2c(Nc3ccc4[nH]c(C(=O)N/N=C/c5ccc(SC)cc5)cc4c3)cc(C)nc12
OUTPUT: > 20 µM

INPUT: Give IC50 for COc1cc(/C=N/NC(=O)c2cc3cc(Nc4cc(C)nc5c(OC)cccc45)ccc3[nH]2)cc(OC)c1
OUTPUT: > 20 µM

INPUT: Return IC50 (reported value) for this compound: COc1cccc(OC)c1/C=N/NC(=O)c1cc2cc(Nc3cc(C)nc4c(OC)cccc34)ccc2[nH]1
OUTPUT: 7.31 µM

* * *

tested on: L02; experiment: Cytotoxicity against human L02 cells assessed as reduction in cell viability incubated for 48 hrs by MTT assay; format: cell-based; conditions: L02, 48 h
reported_property: pIC50
The read-out pIC50 is expressed as -log10 of concentration in moles per litre.

Example cases with answers are listed next.
INPUT: For the compound COc1cccc(/C=N/NC(=O)c2cc3cc(Nc4cc(C)nc5c(OC)cccc45)ccc3[nH]2)c1OC , give its reported pIC50.
OUTPUT: 5.55

INPUT: Give the measured pIC50 for COc1cccc2c(Nc3ccc4[nH]c(C(=O)N/N=C/c5cccc(C(F)(F)F)c5)cc4c3)cc(C)nc12
OUTPUT: 4.87

INPUT: Annotate the compound CC1=C(O)C(=O)C=C2C1=CC=C1[C@@]2(C)CC[C@@]2(C)[C@@H]3C[C@](C)(C(=O)O)CC[C@]3(C)CC[C@]12C with its measured pIC50.
OUTPUT: 5.71

INPUT: Using known records, supply pIC50 for COc1cccc2c(Nc3ccc4[nH]c(C(=O)N/N=C/c5ccc(O)cc5O)cc4c3)cc(C)nc12
OUTPUT: 4.80

Continue with the next compound.
INPUT: Note pIC50 for the compound shown: COc1cccc2c(Nc3ccc4[nH]c(C(=O)N/N=C/c5ccccc5Cl)cc4c3)cc(C)nc12
OUTPUT: 5.43

* * *

target: Nuclear receptor subfamily 4immunitygroup A member 1 (Homo sapiens, UniProt P22736); test: Binding affinity to Nur77 ligand binding domain (unknown origin) assessed as dissociation constant by surface plasmon resonance analysis
Sequence (P22736 whole entry, the tested form may be a part): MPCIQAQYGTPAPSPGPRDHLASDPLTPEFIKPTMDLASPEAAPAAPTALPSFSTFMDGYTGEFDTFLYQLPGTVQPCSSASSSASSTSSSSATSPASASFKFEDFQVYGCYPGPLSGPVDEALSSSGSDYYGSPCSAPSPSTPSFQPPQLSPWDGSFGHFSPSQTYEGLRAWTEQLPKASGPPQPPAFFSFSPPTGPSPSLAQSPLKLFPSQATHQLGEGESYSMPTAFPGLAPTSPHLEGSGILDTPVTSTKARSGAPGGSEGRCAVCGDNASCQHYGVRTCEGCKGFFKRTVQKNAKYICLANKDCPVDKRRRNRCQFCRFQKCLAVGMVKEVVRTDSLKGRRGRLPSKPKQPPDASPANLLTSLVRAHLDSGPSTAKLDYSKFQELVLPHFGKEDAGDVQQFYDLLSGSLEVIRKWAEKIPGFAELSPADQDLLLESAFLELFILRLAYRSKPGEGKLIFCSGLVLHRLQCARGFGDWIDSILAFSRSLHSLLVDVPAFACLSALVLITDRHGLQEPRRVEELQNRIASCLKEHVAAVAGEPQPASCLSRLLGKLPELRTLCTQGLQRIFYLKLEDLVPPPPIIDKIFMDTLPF
reported_property: Kd (µM)
Please reply with the bare figure in µM and do not write the unit itself.

INPUT: Find the measured Kd of COc1cccc2c(Nc3ccc4[nH]c(C(=O)N/N=C/c5ccc(SC)cc5)cc4c3)cc(C)nc12 and report it.
OUTPUT: 3.58

* * *

test system: L02; assay: Cytotoxicity against human L02 cells assessed as reduction in cell viability incubated for 48 hrs by MTT assay; format: cell-based; details: L02, 48 h
reported_property: pIC50
Quick note: pIC50 values are minus log10 of concentrations in mol/L.

INPUT: Find the measured pIC50 of COc1ccc(/C=N/NC(=O)c2cc3cc(Nc4cc(C)nc5c(OC)cccc45)ccc3[nH]2)cc1C(F)(F)F and report it.
OUTPUT: 5.28

INPUT: Report measured pIC50; entry is COc1ccc(/C=N/NC(=O)c2cc3cc(Nc4cc(C)nc5c(OC)cccc45)ccc3[nH]2)c(OC)c1
OUTPUT: 5.24

***
INPUT: For COc1cccc2c(Nc3ccc4[nH]c(C(=O)N/N=C/c5cccs5)cc4c3)cc(C)nc12 , write its pIC50.
OUTPUT: 5.20

INPUT: Quick one: give measured pIC50 for COc1cccc2c(Nc3ccc4[nH]c(C(=O)N/N=C/c5ccccn5)cc4c3)cc(C)nc12
OUTPUT: 4.99

INPUT: State, in one line, measured pIC50 of COc1ccc(/C=N/NC(=O)c2cc3cc(Nc4cc(C)nc5c(OC)cccc45)ccc3[nH]2)c(OC)c1OC
OUTPUT: 4.86

* * *

test system: L02; assay: Cytotoxicity against human L02 cells assessed as reduction in cell viability incubated for 48 hrs by MTT assay; assay type: cell-based; conditions: L02, 48 h
# Lookup of reported pIC50 keyed by entry
API: returns pIC50 as number; meaning -log10 of concentration in mol/L.

Please review the following examples before continuing.
INPUT: Quick one: give measured pIC50 for COc1cccc(/C=N/NC(=O)c2cc3cc(Nc4cc(C)nc5c(OC)cccc45)ccc3[nH]2)c1
OUTPUT: 5.01

INPUT: Tell me measured pIC50 for COc1cccc2c(Nc3ccc4[nH]c(C(=O)N/N=C/c5ccc(O)cc5)cc4c3)cc(C)nc12 please.
OUTPUT: 5.03

INPUT: Tell us which pIC50 value is on record for COc1cccc2c(Nc3ccc4[nH]c(C(=O)N/N=C/c5cccc(C)c5)cc4c3)cc(C)nc12
OUTPUT: 5.50

INPUT: For the compound COc1ccc(/C=N/NC(=O)c2cc3cc(Nc4cc(C)nc5c(OC)cccc45)ccc3[nH]2)cc1Br , give its measured pIC50 value.
OUTPUT: 5.92

INPUT: Hello, please tell me recorded pIC50 for this one: COc1cccc2c(Nc3ccc4[nH]c(C(=O)N/N=C/c5ccccc5F)cc4c3)cc(C)nc12
OUTPUT: 5.61

Alright, here's another compound for you.
INPUT: Provide only the value of recorded pIC50 for O=C(O)c1ccc2cc(-c3ccc(O)c(C45CC6CC(CC(C6)C4)C5)c3)ccc2c1
OUTPUT: 5.00

* * *

test system: L02; assay: Cytotoxicity against human L02 cells assessed as reduction in cell viability incubated for 48 hrs by MTT assay; format: cell-based; conditions: L02, 48 h
pIC50: −log10 of the molar value.
reported_property: pIC50

Study these solved cases before continuing.
INPUT: Tell me its pIC50 given COc1cccc2c(Nc3ccc4[nH]c(C(=O)N/N=C/c5cccnc5)cc4c3)cc(C)nc12 as the entry.
OUTPUT: < 4.70

INPUT: State its pIC50 for this compound: COc1cccc2c(Nc3ccc4[nH]c(C(=O)N/N=C/c5cc(C(F)(F)F)ccc5Br)cc4c3)cc(C)nc12
OUTPUT: < 4.70

Further cases:
INPUT: Report measured pIC50; entry is COc1cccc2c(Nc3ccc4[nH]c(C(=O)N/N=C/c5ccc[nH]5)cc4c3)cc(C)nc12
OUTPUT: < 4.70
